Target: CDK7/Cyclin H/MAT1 complex (Homo sapiens)
Sequence (P50613 whole entry): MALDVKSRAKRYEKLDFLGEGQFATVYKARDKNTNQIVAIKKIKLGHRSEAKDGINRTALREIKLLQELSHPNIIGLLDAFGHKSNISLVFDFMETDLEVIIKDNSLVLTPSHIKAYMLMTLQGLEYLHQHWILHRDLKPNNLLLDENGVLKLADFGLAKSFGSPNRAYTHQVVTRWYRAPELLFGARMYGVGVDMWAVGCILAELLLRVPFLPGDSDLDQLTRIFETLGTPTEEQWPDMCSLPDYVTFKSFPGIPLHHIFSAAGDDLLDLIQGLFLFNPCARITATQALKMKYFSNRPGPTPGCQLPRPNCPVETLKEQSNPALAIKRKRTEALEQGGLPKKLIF
Sequence (P51946 whole entry partner): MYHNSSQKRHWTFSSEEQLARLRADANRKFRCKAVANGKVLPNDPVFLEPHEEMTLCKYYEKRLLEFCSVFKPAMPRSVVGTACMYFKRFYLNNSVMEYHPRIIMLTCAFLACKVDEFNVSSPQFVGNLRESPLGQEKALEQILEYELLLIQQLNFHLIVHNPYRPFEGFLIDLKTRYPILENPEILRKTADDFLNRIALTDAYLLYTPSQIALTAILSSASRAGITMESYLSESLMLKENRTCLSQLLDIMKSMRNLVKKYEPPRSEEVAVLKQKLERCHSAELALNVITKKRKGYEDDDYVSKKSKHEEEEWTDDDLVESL
Sequence (P51948 whole entry partner): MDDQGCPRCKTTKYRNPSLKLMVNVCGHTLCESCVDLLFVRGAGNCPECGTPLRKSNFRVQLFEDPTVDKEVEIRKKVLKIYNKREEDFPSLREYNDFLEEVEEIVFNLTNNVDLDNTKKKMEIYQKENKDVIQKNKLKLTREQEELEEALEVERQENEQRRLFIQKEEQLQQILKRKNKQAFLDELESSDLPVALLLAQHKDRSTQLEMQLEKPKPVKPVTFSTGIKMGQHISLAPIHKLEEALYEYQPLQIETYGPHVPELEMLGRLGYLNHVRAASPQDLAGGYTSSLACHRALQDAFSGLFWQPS
Test: CDK7 kinase inhibition assay (Caliper/LabChip EZ Reader)
Conditions: CDK7/Cyclin H/MAT1 6 nM, ATP 2 mM, 35 min at 27° C.
pIC50: −log10 of the molar value.
Measured Attribute: pIC50

# example entries with known answers
FC(F)(F)c1cnc(N[C@H]2CCCNC2)nc1-c1c[nH]c2cc(-c3ccc4ncsc4c3)ccc12 [Compound 343]
6.70 to 7.70
Fc1cccc(-c2ccc3c(-c4nc(NC5CCCNC5)ncc4C(F)(F)F)c[nH]c3c2)c1 (centres unmarked) [Compound 345]
5.30 to 6.70

Which pIC50 value belongs to CP(C)(=O)c1cccc2c(-c3nc(NC4CCCNC4)ncc3C(F)(F)F)c[nH]c12 (centres unmarked) [Compound 353] ?
> 7.70

# lookup: pIC50 of O=C(c1ccc2c(-c3nc(N[C@H]4CCCNC4)ncc3C(F)(F)F)c[nH]c2c1)N1CC[C@@H](O)C1 [Compound 205]
> 7.70

Reported pIC50 for CS(=O)(=O)c1ccc2c(-c3nc(NC4CCCN(C5CC5)C4)ncc3C(F)(F)F)c[nH]c2c1 (centres unmarked) [Compound 381] : what is it?
6.70 to 7.70

Suppose we examine the compound CC1(C)CCC(Nc2ncc(C(F)(F)F)c(-c3c[nH]c4cc(C#N)ccc34)n2)CN1 (centres unmarked) [Compound 350] ; what pIC50 value has been reported?
6.70 to 7.70

Recorded pIC50 of CCc1cnc(NC2CCCNC2)nc1-c1n[nH]c2ncccc12 (centres unmarked) [Compound 262] , please.
> 7.70

What does the data say about its pIC50? Entry: O=C(c1ccc2c(-c3nc(N[C@H]4CCCNC4)ncc3C(F)(F)F)c[nH]c2c1)N1CC[C@@H](O)C1 [Compound 250]
> 7.70

---

Target: CDK2/Cyclin E1 complex (Homo sapiens, UniProt P24941)
Test: CDK2 kinase inhibition assay (Caliper/LabChip EZ Reader)
Conditions: CDK2/Cyclin E1 0.5 nM, ATP 2 mM, 35 min at 27° C.
Measured Attribute: IC50

N#Cc1cccc2c(-c3nc(NC4CCCNC4)ncc3C(F)(F)F)c[nH]c12 (centres unmarked)
0.02 to 0.2 µM
CC(C)(O)CCc1cccc2c(-c3nc(NC4CCCNC4)ncc3C(F)(F)F)c[nH]c12 (centres unmarked)
0.2 to 5 µM
Cn1cc(-c2ccc3c(-c4nc(NC5CCCNC5)ncc4C(F)(F)F)c[nH]c3c2)ccc1=O (centres unmarked)
≥ 5 µM

Provide value of IC50 for this record tested with CDK2/Cyclin E1 complex (Homo sapiens, UniProt P24941): FC(F)(F)Cc1cnc(N[C@H]2CCCNC2)nc1-c1c[nH]c2ccccc12
≥ 5 µM

Query for CDK2/Cyclin E1 complex (Homo sapiens, UniProt P24941): what IC50 does the record show for OC1CC=C(c2cccc3c(-c4nc(NC5CCCNC5)ncc4C(F)(F)F)c[nH]c23)CC1 (centres unmarked) ?
0.2 to 5 µM

---

# IC50 listing for each entry below
Target: CDK7/Cyclin H/MAT1 complex (Homo sapiens)
Experiment: CDK7 kinase inhibition assay (Caliper/LabChip EZ Reader)
Details: CDK7/Cyclin H/MAT1 6 nM, ATP 2 mM, 35 min at 27° C.
Protocol: Compounds of the invention were assayed for inhibition of CDK7, CDK9, CDK12, and CDK2 activity at Biortus Biosciences (Jiangyin, Jiangsu Province, P.R. of China) using kinase assays for each CDK developed with a Caliper/LabChip EZ Reader (Perkin Elmer, Waltham, Mass.). […]

CS(=O)(=O)c1c(C#N)ccc2c(-c3nc(N[C@H]4CCCNC4)ncc3C(F)(F)F)c[nH]c12
< 0.02 µM
N#Cc1cccc2c(-c3nc(NC4CCCNC4)ncc3C(F)(F)F)c[nH]c12 (stereo not shown)
< 0.02 µM
CCOc1ccccc1-c1ccc2c(-c3nc(NC4CCCNC4)ncc3C(F)(F)F)c[nH]c2c1 (stereo not shown)
0.02 to 0.2 µM

We next turn to a different compound, shown below.
Entry CC1(C)CNC[C@@H](Nc2ncc(C(F)(F)F)c(-c3c[nH]c4ccccc34)n2)C1 : reported IC50 = ?
< 0.02 µM

---

Target: CDK9/Cyclin T1 complex (Homo sapiens, UniProt P50750)
Sequence (P50750 whole entry): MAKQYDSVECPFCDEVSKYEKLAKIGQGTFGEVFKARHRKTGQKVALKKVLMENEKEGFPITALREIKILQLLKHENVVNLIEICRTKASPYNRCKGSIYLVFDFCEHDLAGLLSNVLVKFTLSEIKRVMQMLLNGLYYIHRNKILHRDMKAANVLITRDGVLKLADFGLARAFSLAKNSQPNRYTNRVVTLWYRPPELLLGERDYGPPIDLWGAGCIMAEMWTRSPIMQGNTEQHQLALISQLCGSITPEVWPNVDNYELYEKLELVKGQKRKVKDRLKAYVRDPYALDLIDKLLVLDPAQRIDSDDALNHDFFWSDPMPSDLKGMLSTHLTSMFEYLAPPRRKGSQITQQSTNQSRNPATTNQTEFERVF
Sequence (O60563 whole entry partner): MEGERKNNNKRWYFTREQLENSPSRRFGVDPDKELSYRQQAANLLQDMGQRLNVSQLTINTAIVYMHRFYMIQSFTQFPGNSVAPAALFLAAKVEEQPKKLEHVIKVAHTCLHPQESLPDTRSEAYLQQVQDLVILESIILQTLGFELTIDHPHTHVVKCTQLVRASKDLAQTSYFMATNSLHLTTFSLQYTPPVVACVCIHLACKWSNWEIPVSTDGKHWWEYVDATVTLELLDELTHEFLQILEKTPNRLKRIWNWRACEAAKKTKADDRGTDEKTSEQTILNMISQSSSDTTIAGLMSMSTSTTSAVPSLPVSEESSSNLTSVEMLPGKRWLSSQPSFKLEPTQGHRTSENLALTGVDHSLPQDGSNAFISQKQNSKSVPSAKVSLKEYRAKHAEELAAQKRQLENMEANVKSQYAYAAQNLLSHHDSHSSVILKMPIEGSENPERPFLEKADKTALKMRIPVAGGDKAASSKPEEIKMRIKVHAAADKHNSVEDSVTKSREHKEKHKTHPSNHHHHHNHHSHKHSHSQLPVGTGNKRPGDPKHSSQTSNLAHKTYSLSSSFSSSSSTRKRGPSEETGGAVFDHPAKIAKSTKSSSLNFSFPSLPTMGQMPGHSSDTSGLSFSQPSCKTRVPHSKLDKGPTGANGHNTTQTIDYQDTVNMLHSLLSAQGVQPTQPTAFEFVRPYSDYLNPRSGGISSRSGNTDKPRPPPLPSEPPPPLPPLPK
Test: CDK9 kinase inhibition assay (Caliper/LabChip EZ Reader)
Conditions: CDK9/Cyclin T1 8 nM, ATP 2 mM, 15 min at 27° C.
Measured Attribute: IC50

# count of solved cases: 3
CC1(C)CCC(Nc2ncc(C(F)(F)F)c(-c3c[nH]c4cc(C#N)ccc34)n2)CN1 (centres unmarked) [Compound 350]
≥ 5 µM
FC(F)(F)c1cnc(NC2CCCNC2)nc1-c1c[nH]c2c(-c3ccncc3)cccc12 (centres unmarked) [Compound 162]
0.2 to 5 µM
O=C1CCC(Nc2ncc(Cl)c(-c3c[nH]c4ccccc34)n2)CN1 (centres unmarked) [Compound 159]
0.2 to 5 µM

GET /values?readout=IC50&item= CCCCCc1ccc2c(-c3nc(N[C@@H]4CCCNC4)ncc3C(F)(F)F)c[nH]c2c1 [Compound 241]
0.2 to 5 µM

Name the recorded IC50 for OCc1ncccc1-c1ccc2c(-c3nc(NC4CCCNC4)ncc3C(F)(F)F)c[nH]c2c1 (centres unmarked) [Compound 323] .
≥ 5 µM

Please look up its IC50: N#Cc1ccc2c(-c3nc(N[C@H]4CCC5(CCC5)NC4)ncc3C(F)(F)F)c[nH]c2c1 [Compound 378]
≥ 5 µM

IC50 lookup needed for O=S(=O)(c1ccc2c(-c3nc(NC4CCCNC4)ncc3C(F)(F)F)c[nH]c2c1)C(F)F (centres unmarked) [Compound 375] , thanks.
0.2 to 5 µM

Given the molecule Clc1cnc(N[C@H]2CCCNC2)nc1-c1c[nH]c2c(N3CCOCC3)cccc12 [Compound 150] , what is its reported IC50?
0.2 to 5 µM

---

Biological target: CDK9/Cyclin T1 complex (Homo sapiens)
Experiment: CDK9 kinase inhibition assay (Caliper/LabChip EZ Reader)
Conditions: CDK9/Cyclin T1 8 nM, ATP 2 mM, 15 min at 27° C.
Description: Compounds of the invention were assayed for inhibition of CDK7, CDK9, CDK12, and CDK2 activity at Biortus Biosciences (Jiangyin, Jiangsu Province, P.R. of China) using kinase assays for each CDK developed with a Caliper/LabChip EZ Reader (Perkin Elmer, Waltham, Mass.). […]
pIC50: −log10 of the molar value.
Readings of pIC50 for the listed molecules

Fc1cccc2c(-c3nc(NC4CCCNC4)ncc3Cl)n[nH]c12 (centres unmarked)
5.30 to 6.70
Clc1cnc(NC2CCCNC2)nc1-c1c[nH]c2ncccc12 (centres unmarked)
5.30 to 6.70
FC(F)(F)c1cnc(NC2CNCC(c3nnc4ccccn34)C2)nc1-c1c[nH]c2ccccc12 (centres unmarked) [Compound 267]
5.30 to 6.70
Clc1cnc(N[C@H]2CCCNC2)nc1-c1n[nH]c2ccccc12
5.30 to 6.70
Clc1cnc(NC2CN3CCC2CC3)nc1-c1c[nH]c2ccccc12 (centres unmarked)
≤ 5.30
CCc1cnc(NC2CCCNC2)nc1-c1n[nH]c2nc(C#N)ccc12 (centres unmarked)
5.30 to 6.70
CC1(C)CCC(Nc2ncc(C(F)(F)F)c(-c3c[nH]c4ccccc34)n2)CN1 (centres unmarked)
5.30 to 6.70
O=C1CCc2ccc(-c3ccc4c(-c5nc(NC6CCCNC6)ncc5C(F)(F)F)c[nH]c4c3)cc2N1 (centres unmarked)
5.30 to 6.70

Which pIC50 value belongs to CC1CNCC(Nc2ncc(Cl)c(-c3c[nH]c4ccccc34)n2)C1 (centres unmarked) [Compound 182] ?
5.30 to 6.70

Report pIC50 for Fc1cccc2c(-c3nc(N[C@H]4CCCNC4)ncc3C(F)(F)F)n[nH]c12 please.
5.30 to 6.70

Would you mind telling me what pIC50 value was observed for CCC(=O)NC1CNCC(Nc2ncc(C(F)(F)F)c(-c3c[nH]c4c(S(C)(=O)=O)cccc34)n2)C1 (centres unmarked) ?
5.30 to 6.70

// lookup pIC50 for FC(F)(F)c1cnc(N[C@H]2CCCNC2)nc1-c1c[nH]c2cc(-c3cccc(Oc4ccccc4)c3)ccc12
≤ 5.30

Give the measured pIC50 of Cn1cc(-c2ccc3c(-c4nc(NC5CCCNC5)ncc4C(F)(F)F)c[nH]c3c2)ccc1=O (centres unmarked) .
≤ 5.30

Report pIC50 for Cn1ccc(-c2ccc3c(-c4nc(NC5CCCNC5)ncc4C(F)(F)F)c[nH]c3c2)n1 (centres unmarked) please.
5.30 to 6.70

// returns reported pIC50 for input FC1CCNCC1Nc1ncc(Cl)c(-c2c[nH]c3ccccc23)n1 (centres unmarked)
5.30 to 6.70

Recorded pIC50 for CS(=O)(=O)Cc1ccc2c(-c3nc(NC4CCCNC4)ncc3C(F)(F)F)c[nH]c2c1 (centres unmarked) , please?
5.30 to 6.70

Field request: pIC50 | item: CCc1cnc(NC2CCCNC2)nc1-c1c[nH]c2c(S(=O)O)cccc12 (centres unmarked)
≤ 5.30
